These data points were gathered from patent US20150183781A1.

measured-on: recombinant human ALK enzyme (Homo sapiens)
Construct: purchased Carna Biosciences 08-518
Sequence (Q9UM73 1058-1620 limits assumed): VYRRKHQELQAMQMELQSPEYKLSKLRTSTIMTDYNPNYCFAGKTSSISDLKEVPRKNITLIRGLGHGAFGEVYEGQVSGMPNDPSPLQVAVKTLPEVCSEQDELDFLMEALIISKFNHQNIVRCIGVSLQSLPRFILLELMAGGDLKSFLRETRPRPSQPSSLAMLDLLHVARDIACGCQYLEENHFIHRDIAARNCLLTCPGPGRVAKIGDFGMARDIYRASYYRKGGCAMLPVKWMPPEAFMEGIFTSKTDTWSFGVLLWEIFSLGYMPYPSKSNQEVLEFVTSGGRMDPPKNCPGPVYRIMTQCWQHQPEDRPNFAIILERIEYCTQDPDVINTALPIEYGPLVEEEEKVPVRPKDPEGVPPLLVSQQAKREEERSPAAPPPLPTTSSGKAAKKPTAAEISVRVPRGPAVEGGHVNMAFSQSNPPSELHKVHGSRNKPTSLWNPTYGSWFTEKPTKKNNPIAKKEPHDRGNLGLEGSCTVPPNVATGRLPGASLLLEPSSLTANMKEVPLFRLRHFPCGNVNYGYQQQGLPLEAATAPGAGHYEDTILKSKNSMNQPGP
protocol-notes: ALK WT cell free assay (TR-FRET)
Format: biochemical
study-conditions: 1 μM ATP, 10 point dose response, read-out: IC50 value (in range)
pIC50: −log10 of the molar value.

# structure-smiles-string, pIC50
measured = [
    ("Cn1cc(-c2cnc3[nH]cc(-c4cnn(Cc5cccc(F)c5)c4)c3c2)cn1", "> 7.30"),
    ("Cn1cc(-c2cnc3[nH]cc(-c4cnn(Cc5cccc(O)c5)c4)c3c2)cn1", "> 7.30"),
    ("c1ccc(CCn2cc(-c3c[nH]c4ncc(-c5cnn(C6CCNCC6)c5)cc34)cn2)cc1", "6.70 to 7.30"),
    ("Cc1nn(Cc2cccc(F)c2)cc1-c1c[nH]c2ncc(-c3cnn(C4CCNCC4)c3)cc12", "> 7.30"),
    ("Cc1nn(Cc2cccc(F)c2)c(C)c1-c1c[nH]c2ncc(-c3cnn(C4CCNCC4)c3)cc12", "> 7.30"),
    ("Cn1cc(-c2cnc3[nH]cc(-c4cnn(Cc5cc(F)ccc5F)c4)c3c2)cn1", "> 7.30"),
    ("Cc1nn(Cc2cccc(F)c2)c(C)c1-c1c[nH]c2ncc(-c3cnn(CCO)c3)cc12", "> 7.30"),
    ("Cn1cc(-c2cnc3[nH]cc(-c4cnn(Cc5ccccc5F)c4)c3c2)cn1", "6.70 to 7.30"),
]
